Hello, the source for this data is patent US7468443B2, in case you need it.

Kindly state neutrite outgrowth acceleration rate for each of the entries shown.
System: PC12 cells
methodNotes: Activity to accelerate neurite outgrowth (NGF-treated PC12 cells)
Format: cell-based, rat
conditionContext: test compound 10 μM with 2.5s-NGF 40 ng/mL, 48 hours; neutrite outgrowth rate due to NGF taken as 100%
Structures can show the parent of a compound that is named as a salt.
Please give a number only; it is taken to be in %.

## Input Entry OC1CCN(CCCOCCc2ccc3sccc3c2)C1 (stereo not drawn) [Example 59, hydrochloride] has what neutrite outgrowth acceleration rate?
## Output 241

## Input Entry OC1CN(CCCOCCc2cccc3sccc23)C1 [Example 12, hydrochloride] has what neutrite outgrowth acceleration rate?
## Output 299

## Input Entry COc1cc2ccoc2cc1CCOCCN1CCC(O)C1 (stereo not drawn) [Example 51, oxalate] has what neutrite outgrowth acceleration rate?
## Output 216

## Input Entry O[C@@H]1CN(CCOCCc2ccc3sccc3c2)C[C@@H]1O [Example 71, hydrochloride] has what neutrite outgrowth acceleration rate?
## Output 183

## Input Entry OC1CN(CCCOCCc2cc3ccccc3s2)C1 [Example 6, hydrochloride] has what neutrite outgrowth acceleration rate?
## Output 300

## Input Entry OC1CCN(CCOCCc2ccc3ccccc3c2)C1 (stereo not drawn) [Example 69, oxalate] has what neutrite outgrowth acceleration rate?
## Output 233

## Input Entry OC1CCN(CCOCCc2cccc3ccccc23)C1 (stereo not drawn) [Example 29, oxalate] has what neutrite outgrowth acceleration rate?
## Output 212

## Input Entry OC1CN(CCCOCCc2ccc3sccc3c2)C1 has what neutrite outgrowth acceleration rate?
## Output 190

## Input Entry CN(C)C1CCN(CCCOCCc2ccc3sccc3c2)C1 (stereo not drawn) [Example 80, dihydrochloride] has what neutrite outgrowth acceleration rate?
## Output 190
